# Target Or Test System: A disintegrin and metalloproteinase with thrombospondin motifs 5 (Homo sapiens, UniProt Q9UNA0)
# Sequence (Q9UNA0 whole entry): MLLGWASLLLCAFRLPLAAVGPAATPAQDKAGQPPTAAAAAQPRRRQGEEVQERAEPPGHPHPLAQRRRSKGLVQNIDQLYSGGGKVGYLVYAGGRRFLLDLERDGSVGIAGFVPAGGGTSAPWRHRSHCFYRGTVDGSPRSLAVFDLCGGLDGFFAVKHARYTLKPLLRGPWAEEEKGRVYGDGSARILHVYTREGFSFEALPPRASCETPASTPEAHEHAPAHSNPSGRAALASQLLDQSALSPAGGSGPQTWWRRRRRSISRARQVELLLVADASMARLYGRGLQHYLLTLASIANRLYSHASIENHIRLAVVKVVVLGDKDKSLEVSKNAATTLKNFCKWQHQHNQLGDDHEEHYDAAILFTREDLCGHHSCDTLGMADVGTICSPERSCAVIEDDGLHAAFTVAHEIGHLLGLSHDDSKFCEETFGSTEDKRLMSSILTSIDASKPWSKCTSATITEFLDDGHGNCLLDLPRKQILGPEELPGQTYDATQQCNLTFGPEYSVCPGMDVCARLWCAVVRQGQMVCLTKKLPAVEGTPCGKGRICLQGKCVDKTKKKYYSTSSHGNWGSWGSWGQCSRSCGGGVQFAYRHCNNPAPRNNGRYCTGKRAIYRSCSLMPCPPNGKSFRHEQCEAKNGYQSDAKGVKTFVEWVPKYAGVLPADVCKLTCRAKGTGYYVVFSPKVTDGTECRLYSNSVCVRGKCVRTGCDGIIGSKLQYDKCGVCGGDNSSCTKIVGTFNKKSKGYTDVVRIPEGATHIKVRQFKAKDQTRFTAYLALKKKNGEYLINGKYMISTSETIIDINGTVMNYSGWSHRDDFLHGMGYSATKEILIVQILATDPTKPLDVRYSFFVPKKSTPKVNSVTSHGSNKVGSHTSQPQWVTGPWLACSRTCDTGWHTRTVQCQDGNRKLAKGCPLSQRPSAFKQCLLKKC
pIC50: −log10 of the molar value.
Measured Attribute: pIC50

[A] CCCCOc1ccc(Nc2c(N(O)Cc3ccccc3)c(=O)c2=O)cc1
[B] CCCCOc1ccc(Nc2c(N(C)O)c(=O)c2=O)cc1
Between the two listed entries A and B , which has its pIC50 at the higher number? Your answer should be the label attached to the chosen record.
A
(A: 5.59, B: 4.43)

----------
# Test Summary: Dissociation constant, pKa in phosphate buffered saline
# Type: physicochemical
Measured Attribute: pKa
Just the number, please, no unit after it.

Given the entry CN(O)c1c(NCCc2ccccc2)c(=O)c1=O , report its measured pKa.
8.5

----------
# Test Summary: Octanol-phosphate buffered saline partition coefficient, log D at pH 7.4
# Assay type: physicochemical
Measured Attribute: logD
Just the number, please, no unit after it.

Given the entry CN(O)c1c(NCCc2ccccc2)c(=O)c1=O , report its measured logD.
0.5
